Just for reference, patent US6906205B2 is where these values come from.

For each entry below, report its Survival (days) sc value.
system: ANKA strain of P. berghei; assay: single dose STI in vivo screen in infected mice; design: species or system Plasmodium berghei; conditions: single 10 mg/kg sc in 3% ethanol and 7% Tween 80; untreated control 5.6 ± 0.3
Number only, in days; omit the unit.

# Survival (days) sc of O=C1CC2CC3(CC2C1)OOC1(O3)C2CC3CC(C2)CC1C3 (stereo not drawn) = 9.3

# Survival (days) sc of c1ccc(C2CCC3(CC2)OOC2(O3)C3CC4CC(C3)CC2C4)cc1 (stereo not drawn) = 17.1

# Survival (days) sc of CCOC(=O)CC1CCC2(CC1)OOC1(O2)C2CC3CC(C2)CC1C3 (stereo not drawn) = 7.3

# Survival (days) sc of CCOC(=O)C1(C(=O)OCC)COC2(CCC3(CC2)OOC2(O3)C3CC4CC(C3)CC2C4)OC1 (stereo not drawn) = 8.0

# Survival (days) sc of CCOC(=O)CCC1CCCCC12OOC1(O2)C2CC3CC(C2)CC1C3 (stereo not drawn) = 9.7

# Survival (days) sc of CC(=O)OC[C@H]1CC[C@]2(CC1)OOC1(O2)C2CC3CC(C2)CC1C3 (stereo partly drawn) = 8.3

# Survival (days) sc of OC1(c2nccs2)CCC2(CC1)OOC1(O2)C2CC3CC(C2)CC1C3 (stereo not drawn) = 9.0

# Survival (days) sc of NC(=O)CNC[C@H]1CC[C@]2(CC1)OOC1(O2)C2CC3CC(C2)CC1C3 (stereo partly drawn) = 9.7

# Survival (days) sc of O=C(OC1CCC2(CC1)OOC1(O2)C2CC3CC(C2)CC1C3)c1ccccc1 (stereo not drawn) = 10.0

----------
test system: ANKA strain of P. berghei; test: single dose STI in vivo screen in infected mice; set-up: species or system Plasmodium berghei; details: single 10 mg/kg po in 3% ethanol and 7% Tween 80; untreated control 5.6 ± 0.3
readout: Survival (days) po
Number only, in days; omit the unit.

# Survival (days) po of NC(=O)NC[C@H]1CC[C@]2(CC1)OOC1(O2)C2CC3CC(C2)CC1C3 (stereo partly drawn) [OZ265] = 13.0

# Survival (days) po of O=S(=O)(c1ccc(F)cc1)N1CCC2(CC1)OOC1(O2)C2CC3CC(C2)CC1C3 (stereo not drawn) [OZ86] = 6.7

# Survival (days) po of C1=C(c2ccccc2)CCC2(C1)OOC1(O2)C2CC3CC(C2)CC1C3 (stereo not drawn) [OZ226] = 5.0

# Survival (days) po of O=C1CC2CC3(CC2C1)OOC1(O3)C2CC3CC(C2)CC1C3 (stereo not drawn) [OZ12] = 7.0

# Survival (days) po of O=C(CN1C(=O)c2ccccc2C1=O)N1CCC2(CC1)OOC1(O2)C2CC3CC(C2)CC1C3 (stereo not drawn) [OZ93] = 6.7

# Survival (days) po of O=C1CC2CC(C1)CC1(C2)OOC2(O1)C1CC3CC(C1)CC2C3 (stereo not drawn) [OZ13] = 6.7

# Survival (days) po of COC(=O)c1ccc(C[C@H]2CC[C@]3(CC2)OOC2(O3)C3CC4CC(C3)CC2C4)cc1 (stereo partly drawn) [OZ204] = 6.0

# Survival (days) po of COC(=O)c1cncn1C[C@H]1CC[C@]2(CC1)OOC1(O2)C2CC3CC(C2)CC1C3 (stereo partly drawn) [OZ223] = 7.3

# Survival (days) po of C1CC2(CCN1)OOC1(O2)C2CC3CC(C2)CC1C3.Cl (stereo not drawn) [OZ80] = 6.3

# Survival (days) po of CCOC(=O)C1(C(=O)OCC)COC2(CCC3(CC2)OOC2(O3)C3CC4CC(C3)CC2C4)OC1 (stereo not drawn) [OZ120] = 6.0

# Survival (days) po of CC(C)(C)OC(=O)N1CCC2(CC1)OOC1(O2)C2CC3CC(C2)CC1C3 (stereo not drawn) [OZ35] = 6.3

# Survival (days) po of O=C(C[C@H]1CC[C@]2(CC1)OOC1(O2)C2CC3CC(C2)CC1C3)Nc1nccs1 (stereo partly drawn) [OZ217] = 7.0

# Survival (days) po of O=C([C@H]1CC[C@]2(CC1)OOC1(O2)C2CC3CC(C2)CC1C3)N1CCN(c2ccccc2)CC1 (stereo partly drawn) [OZ140] = 6.0

# Survival (days) po of COC(=O)c1ncn(C[C@H]2CC[C@]3(CC2)OOC2(O3)C3CC4CC(C3)CC2C4)n1 (stereo partly drawn) [OZ234] = 6.0

# Survival (days) po of O=C(NN=C1CCC2(CC1)OOC1(O2)C2CC3CC(C2)CC1C3)Nc1ccccc1 (stereo not drawn) [OZ30] = 5.3

# Survival (days) po of O=C(COc1ccc(Cl)cc1)N1CCC2(CC1)OOC1(O2)C2CC3CC(C2)CC1C3 (stereo not drawn) [OZ101] = 6.3

# Survival (days) po of O=C(O)c1ccc(OC[C@H]2CC[C@]3(CC2)OOC2(O3)C3CC4CC(C3)CC2C4)cc1 (stereo partly drawn) [OZ176] = 7.0
